A collection of variants and their measured protein stability index
B1: CHCHD3 (parent)
chain: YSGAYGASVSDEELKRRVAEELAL

variants of: B1; experiment: protein stability index of a GFP-peptide fusion (GPS, HEK-293T) (PSI 1-6); higher = more stable; details: c terminus: a fixed tail appended;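 note: lentivirally expressed fusions sorted by FACS into six bins by GFP to DsRed ratio, PSI derived from sequencing read proportions per bin multiplied by bin number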

Worked examples follow.
K15D	3.38
L24A	2.62
A19M	3.43
L22M	2.87
A4S	3.39
K15M	2.61
G3R	3.56
G3L	4.33
S10P	2.6
A4V	3.03

Which protein stability index value is on record for "S2W" ?
4.26

Which protein stability index value is on record for "S8Q" ?
3.02

Which protein stability index value is on record for "G6K" ?
2.06

Which protein stability index value is on record for "G3E" ?
4.87

Which protein stability index value is on record for "E21P" ?
3.47

Which protein stability index value is on record for "Y1C" ?
3.63

Which protein stability index value is on record for "Y5T" ?
5.01

Which protein stability index value is on record for "A7P" ?
2.94

Which protein stability index value is on record for "S2C" ?
2.48

Which protein stability index value is on record for "D11W" ?
2.31

Which protein stability index value is on record for "G6W" ?
1.64

Which protein stability index value is on record for "D11Q" ?
2.34

Where do the numbers come from? From the supplement of paper PMC10567573.
